Entry source: PubChem BioAssay (NCI)

# Tested on: CCRF-CEM leukemia
# PROTOCOL_NOTES: NCI-60 one-dose screen, 48 h (100 = growth as untreated, 0 = no growth, -100 = all killed)
# TEST_PARAMETERS: 10 µM unless noted
About 83,000 compounds went through this panel and 20% of them were active in at least one assay; those are over-represented in the sample as a whole.
ASSAY_METRIC: growth (%)
Answers are plain numbers, in %.

A selection of reference data follows.
INSERT INTO results (compound, measured_target, recorded_result) VALUES
  ('CC1=Nc2cnc(Nc3ccc(OCCN4CCCCC4)cc3)nc2Nc2ccccc21', 'CCRF-CEM leukemia', 70.2),
  ('O=C(O)[C@@H]1c2ccccc2-c2ccccc2[C@H]1C(=O)O', 'CCRF-CEM leukemia', 87.1),
  ('CCN1C(=O)N(CC)C2C1NN=c1s/c(=C\c3ccc(Cl)cc3Cl)c(=O)n12 (configuration not stated)', 'CCRF-CEM leukemia', 9.4),
  ('S=C1CCSC(=S)N1CCCN1C(=S)CCSC1=S', 'CCRF-CEM leukemia', 16.7),
  ('COC1C[C@H](O[C@@H]2C[C@H](O[C@@H]3C[C@H](O[C@@H]4C(=O)c5c(cc6cc(O[C@H]7C[C@@H](O[C@H]8C[C@@H](O)[C@H](O)C(C)O8)[C@H](O)C(C)O7)c(C)c(O)c6c5O)C[C@H]4C(OC)C(=O)[C@@H](O)[C@@H](C)O)OC(C)[C@H]3O)OC(C)[C@@H]2O)OC(C)[C@@H]1O (some centres not stated)', 'CCRF-CEM leukemia', 6.53),
  ('O=C(OCc1ccc2c(Cl)cc(Cl)c(O)c2n1)n1cncn1', 'CCRF-CEM leukemia', 24.2),
  ('C#CCOc1cccc(Nc2ncnc3c(NC(=O)C=C)cccc23)c1', 'CCRF-CEM leukemia', 2.68),
  ('CC1(C)CCC(S(=O)(=O)c2ccc3c(c2)/C(=N\O)c2cc(S(=O)(=O)N4CCC(O)(c5cccc(C(F)(F)F)c5)CC4)ccc2-3)CC1', 'CCRF-CEM leukemia', -58.4),
  ('C=C(CNCCc1ccc(O)cc1)[C@@H]1CC[C@]2(CO)CC[C@]3(C)[C@H](CC[C@@H]4[C@@]5(C)CCC(NCCO)C(C)(C)[C@@H]5CC[C@]43C)[C@@H]12 (some centres not stated)', 'CCRF-CEM leukemia', -19.7),
  ('O=C1c2c(c3c4ccc(Br)cc4oc3c3[nH]c4ccccc4c23)C(=O)N1O', 'CCRF-CEM leukemia', 11.4);

Look up growth for the entries below, preserving their order.
1. N#Cc1c(-c2ccc(Cl)cc2)nc(SCC(=O)NC2=NN=C(c3ccccc3)CS2)[nH]c1=O
2. Nc1c(C(=O)Nc2ccncc2)sc2nc3c(cc12)CCCCCC3
3. O=c1c2cc(-c3ccccc3)sc2nc2sc(-c3ccccc3)nn12
4. CCN1CCN(Cc2cn(CC(=O)Nc3ccc4c(ccn4Cc4ccccc4)c3)nn2)CC1
5. COc1ccc(C/C(C)=C(/c2ccc(OCCN3CCCCC3)cc2)c2ccc(OC(=O)NCc3ccccc3)cc2)cc1
6. C=C1C(=O)O[C@H]2[C@H]1CC/C(COC(=O)NCc1ccc(Cn3c(=O)sn(CCI)c3=O)cc1)=C\CC[C@@]1(C)O[C@@H]21
7. Cc1nnc(-n2c(O)cc(=O)n(-c3ccccc3)c2=S)nc1/C=C/c1ccc(N(C)C)cc1

// result
[63.8, 68.1, 104, 7.79, -44.1, -16.1, 52.5]

----------
# Test system: SW-620 colon
# PROTOCOL_NOTES: NCI-60 one-dose screen, 48 h
# TEST_PARAMETERS: 10 µM unless noted
This is part of a sample that, as a whole, favours compounds with a hit. Of some 83,000 tested, about 20% had one in any assay. Activity calls are given as the source filed them. Rule for the calls: active = growth percent below 10; inactive = the rest.
Form entry, call: pick from yes (1) (active), no (0) (inactive)

Here's what some known entries look like.
INSERT INTO measurements (molecule, qualitative_label) VALUES
  ('Cc1ccc(Cl)cc1Nc1nc(C(F)(F)F)ccc1C(=O)N/N=C/c1cccnc1', 'no (0)'),
  ('Nc1ncnc2c1N=C(c1ccc3c(c1)OCO3)CC(c1ccc([N+](=O)[O-])cc1)N2 (stereo not given)', 'no (0)'),
  ('Oc1ccc(CN2CCC(N3CCCCC3)CC2)c2cccnc12', 'no (0)'),
  ('Cn1cc(-c2nc(-c3c[nH]c4ccncc34)cs2)c2ccccc21', 'yes (1)'),
  ('CCOC(=O)C1=NN(c2ccccc2)C(=O)/C1=C\N1C(=O)CC(=O)NC1=S', 'no (0)'),
  ('CCCNC(=O)Oc1ccc(/C(=C(/C)Cc2ccc(OC)cc2)c2ccc(OCCCN(C)C)cc2)cc1', 'no (0)'),
  ('CC1=NN(c2nc(SCC(=O)Nc3nc4ccc(C)cc4s3)nc(-c3ccccc3)c2C#N)C(=O)C1', 'no (0)'),
  ('N#Cc1nc(-c2ccccc2)oc1S(=O)(=O)N1CCOCC1', 'no (0)'),
  ('Cn1c(=O)c2[nH]c(N/N=C/c3ccccc3Br)nc2n(C)c1=O', 'no (0)');

As a next step, examine the molecule that follows.
// query What did the test return for `CS(=O)(=O)c1cccc(-c2c(-c3cccc(OS(N)(=O)=O)c3)nc3sccn23)c1` ?
// result no (0)

----------
# Test system: SF-539 CNS
# PROTOCOL_NOTES: NCI-60 one-dose screen, 48 h (100 = growth as untreated, 0 = no growth, -100 = all killed)
# TEST_PARAMETERS: 10 µM unless noted
The panel holds about 83,000 compounds, 20% with a hit somewhere; the sample as a whole holds those more often.
Exercise: state measured growth for each of the compounds provided.
Give bare numbers, in %.

A selection of reference data follows.
INSERT INTO results (compound, recorded_result) VALUES
  ('CC(C)=CCC[C@](C)(O)[C@H]1CC[C@]2(C)[C@@H]1CC[C@@H]1[C@@]3(C)Cc4nccnc4C(C)(C)[C@@H]3CC[C@]12C', 76.3),
  ('Nc1c(C(=O)Nc2ccncc2)sc2nc3c(cc12)CCCCCC3', 79.9),
  ('COc1cc(NC(C)CCCNC(C)C)c2ncccc2c1OC (stereo not given)', 85.6),
  ('COc1ccc2cc(C(=O)c3coc4ccc(O)cc34)ccc2c1', 93.7);

Look up growth for the entries below, preserving their order.
1. N#Cc1nc(-c2ccccc2)oc1S(=O)(=O)N1CCOCC1
2. CN(C)C1CCN(Cc2ccc(NC(=O)c3cncc(C#Cc4cnc(N)c5ncccc45)c3)cc2C(F)(F)F)CC1
3. COc1ccc(-c2nn(-c3ccccc3)cc2/C=C2/SC(=S)N(C)C2=O)cc1

// result
[101, 59.6, 70.3]

Look up growth for the entries below, preserving their order.
1. CC1=C(Nc2ccc(N3CCN(C)CC3)cc2)C(=O)c2cncnc2C1=O
2. CC(=O)N1N=C(c2ccc(Nc3nc(Nc4ccc(Cl)cc4)nc(Nc4ccc(Cl)cc4)n3)cc2)CC1c1ccco1 (stereo not given)
3. CC(C)NC1CCC(Nc2ccnc3cc(Cl)ccc23)CC1 (stereo not given)
4. COc1cccc(NC(=O)Cn2cc(CN3CCN(c4ccnc5cc(Cl)ccc45)CC3)nn2)c1
5. Cc1ccc(S(=O)(=O)N2CCCC2CO)cc1 (stereo not given)
6. CCn1c(=S)sc2c(Nc3ccc(F)cc3)nc(-c3cccnc3)nc21
7. COc1ccc(-c2nc3c(c(-c4ccccc4)nn3-c3ccccc3)c(-c3ccc(N4CCOCC4)cc3)c2C#N)cc1
8. N#Cc1cccc(F)c1

// result
1. 94.5
2. 96
3. 97.5
4. 87.7
5. 94.4
6. 41.5
7. 85.9
8. 88.9

Look up growth for the entries below, preserving their order.
1. CCN(CC)CCOc1ccc(C(=C(C)c2ccc(Cl)cc2)c2ccc(OCCN(CC)CC)cc2)cc1
2. c1ccc(CNc2c3ccccc3nc3ccccc23)cc1
3. Fc1ccc(-c2nn(-c3ccccc3)cc2-c2nc3ccccc3o2)cc1
4. Nc1ncnc2c1N=C(c1ccc3c(c1)OCO3)CC(c1cccc(Nc3ccnc4cc(Cl)ccc34)c1)N2 (stereo not given)
5. C=C1C(=O)O[C@H]2[C@H]1CC/C(COC(=O)NCc1cc[nH]c1)=C\CC[C@@]1(C)O[C@@H]21

// result
[-92.6, 24, 91.7, 86.3, 50.8]

----------
# System: OVCAR-5 ovarian
# PROTOCOL_NOTES: NCI-60 one-dose screen, 48 h
# TEST_PARAMETERS: 10 µM unless noted
Compounds without any hit were thinned out: in the full panel of roughly 83,000, 20% have a hit. Activity calls are given as the source filed them. Rule for the calls: active = growth percent below 10; inactive = the rest.
Form entry, call: pick from class 1 = active, class 0 = inactive

Here's what some known entries look like.
INSERT INTO measurements (molecule, qualitative_label) VALUES
  ('CN1C(=O)N(C)C2Nn3c(s/c(=C\c4ccc(C(F)(F)F)cc4)c3=O)=NC21 (stereo not given)', 'class 0'),
  ('COc1ccc(/C=N/C2=C(C#N)C(c3cccc(Cl)c3)c3c(ccc4ccccc34)O2)cc1 (stereo not given)', 'class 0'),
  ('CCOC(=O)c1c(NC(=O)c2ccc(C(C)C)cc2)sc2c(CN(C)C)c(O)ccc12', 'class 0'),
  ('N#Cc1c(-c2ccc(Cl)cc2)nc(NN=Cc2cccc(O)c2)nc1N1CCOCC1', 'class 0');

// query What did the test return for `COc1cnc2c(c1)C(=O)c1c-2n(CCCNCCO)c(=O)c2ccncc12` ?
// result class 1
